# Tested on: CYP2B6
# TEST_DESCRIPTION: CYP mRNA induction in cultured human hepatocytes
# Type: in vitro ADME
# APPLIED_CONDITIONS: human, primary cultured human hepatocytes, 0.1 μM; donors AIH, EUJ, HC5-40 individually

- MOLECULE: "O=C([C@H](CO)c1ccccc1)N1CC2=C(C1)CN(S(=O)(=O)c1cnc3c(c1)OCCO3)C2 (single isomer, unassigned)"
  fold induction at 0.1 µM: 1.01

====

# TARGET_SYSTEM: wt-PKR in mature human erythrocytes (Homo sapiens, UniProt P30613)
# Sequence (P30613 whole entry): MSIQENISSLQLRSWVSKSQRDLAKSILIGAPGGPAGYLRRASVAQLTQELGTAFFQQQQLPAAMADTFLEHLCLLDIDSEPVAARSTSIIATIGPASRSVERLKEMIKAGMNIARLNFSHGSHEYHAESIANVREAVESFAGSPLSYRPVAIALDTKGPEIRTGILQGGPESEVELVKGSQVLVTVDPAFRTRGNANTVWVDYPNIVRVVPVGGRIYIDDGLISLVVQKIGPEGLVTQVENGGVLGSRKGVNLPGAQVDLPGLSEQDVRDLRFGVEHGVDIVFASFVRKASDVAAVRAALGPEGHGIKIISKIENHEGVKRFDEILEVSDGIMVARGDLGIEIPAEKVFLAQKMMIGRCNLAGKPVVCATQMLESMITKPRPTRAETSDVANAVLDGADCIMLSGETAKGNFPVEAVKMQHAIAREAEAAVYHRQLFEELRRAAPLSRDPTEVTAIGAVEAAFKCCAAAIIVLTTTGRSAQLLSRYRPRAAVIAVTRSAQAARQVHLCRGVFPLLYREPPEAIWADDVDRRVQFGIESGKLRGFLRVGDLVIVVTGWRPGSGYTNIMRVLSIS
# TEST_DESCRIPTION: Cell assay: PKR activation in human RBCs (Biovision Pyruvate Kinase Assay)
# APPLIED_CONDITIONS: Cell Assay of Example 4
pEC50: −log10 of the molar value.

- COMPOUND: "O=C([C@H](CO)c1ccccc1)N1CC2=C(C1)CN(S(=O)(=O)c1cnc3c(c1)OCCO3)C2 (single isomer, unassigned)"
  pEC50: "> 6.30"

====

# TEST_DESCRIPTION: Phase 1 SAD/MAD/food effect: plasma pharmacokinetics in healthy volunteers
# Type: in vivo, human
# APPLIED_CONDITIONS: human, plasma, oral; HV (N = 6); single dose 700 mg; geometric mean (geometric CV)

- COMPOUND: "O=C([C@H](CO)c1ccccc1)N1CC2=C(C1)CN(S(=O)(=O)c1cnc3c(c1)OCCO3)C2 (single isomer, unassigned)"
  AUC(0-inf): "7 µg·h/mL"

====

# TEST_DESCRIPTION: Phase 1 SAD/MAD/food effect: plasma pharmacokinetics in healthy volunteers
# Type: in vivo, human
# APPLIED_CONDITIONS: human, plasma, oral, healthy volunteers; single doses up to 700 mg; read-out: T1/2

- MOLECULE: "O=C([C@H](CO)c1ccccc1)N1CC2=C(C1)CN(S(=O)(=O)c1cnc3c(c1)OCCO3)C2 (single isomer, unassigned) [Compound 1]"
  half-life: "11 to 15 h"

====

# TEST_DESCRIPTION: Solubility in water or buffered solutions
# Assay type: physicochemical
# APPLIED_CONDITIONS: aqueous buffer, pH about 1.07 to about 8.69

- COMPOUND: "O=C([C@H](CO)c1ccccc1)N1CC2=C(C1)CN(S(=O)(=O)c1cnc3c(c1)OCCO3)C2 (single isomer, unassigned)"
  solubility: "22 to 25 µg/mL"

====

# TARGET_SYSTEM: CYP1A2 (Homo sapiens, UniProt P05177)
# Sequence (P05177 whole entry): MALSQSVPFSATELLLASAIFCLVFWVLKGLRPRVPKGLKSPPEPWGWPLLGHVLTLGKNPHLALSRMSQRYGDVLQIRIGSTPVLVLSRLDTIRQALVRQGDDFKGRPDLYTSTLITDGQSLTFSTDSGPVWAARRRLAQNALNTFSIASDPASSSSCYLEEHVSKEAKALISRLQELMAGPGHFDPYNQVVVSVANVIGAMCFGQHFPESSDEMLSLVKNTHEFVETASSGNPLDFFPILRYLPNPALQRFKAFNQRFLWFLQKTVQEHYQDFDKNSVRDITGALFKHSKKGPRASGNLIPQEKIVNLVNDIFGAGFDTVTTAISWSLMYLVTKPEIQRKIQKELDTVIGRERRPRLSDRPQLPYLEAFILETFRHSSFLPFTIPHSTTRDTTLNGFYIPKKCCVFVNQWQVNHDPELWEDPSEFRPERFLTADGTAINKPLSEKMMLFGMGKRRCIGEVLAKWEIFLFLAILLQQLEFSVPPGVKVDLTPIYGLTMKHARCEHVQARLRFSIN

- COMPOUND: "O=C([C@H](CO)c1ccccc1)N1CC2=C(C1)CN(S(=O)(=O)c1cnc3c(c1)OCCO3)C2 (single isomer, unassigned)"
  IC50: "> 30 µM"

====

# Test system: CYP2B6
# TEST_DESCRIPTION: CYP mRNA induction in cultured human hepatocytes
# Type: in vitro ADME
# APPLIED_CONDITIONS: human, 1 μM; donors AIH, EUJ, HC5-40 individually

- COMPOUND: "O=C([C@H](CO)c1ccccc1)N1CC2=C(C1)CN(S(=O)(=O)c1cnc3c(c1)OCCO3)C2 (single isomer, unassigned)"
  fold induction at 1 µM: 1.07

====

# TEST_DESCRIPTION: Phase 1: plasma pharmacokinetics in SCD patients
# Assay type: in vivo
# APPLIED_CONDITIONS: human, oral, SCD (N = 5), single dose 700 mg, geometric mean (geometric CV)
EXPERIMENTAL_ENDPOINT: Cmax (ng/mL)

- MOLECULE: "O=C([C@H](CO)c1ccccc1)N1CC2=C(C1)CN(S(=O)(=O)c1cnc3c(c1)OCCO3)C2 (single isomer, unassigned) [Compound 1]"
  MEASURE_UNIT: "ng/mL"
  READING: 2580
